Molecular target: T1, Cynomolgus Monkey CD3 epsilon protein (Cynomolgus monkey, UniProt Q95LI5 22-117)
T1 construct: Bought protein; also called Cyno-Monkey CD3epsilon
T1 sequence (looked up): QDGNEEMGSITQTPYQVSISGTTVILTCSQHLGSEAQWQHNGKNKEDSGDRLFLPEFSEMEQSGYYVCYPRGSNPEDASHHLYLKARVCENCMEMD
Assay: ELISA, antigen coated on plate
ASSAY METRIC: EC50 (pM)
Give a bare numeral; the unit pM is implied.

Problem: Query EC50 for WBP3311_2.383.47 (antibody, V domains shown, Mouse monoclonal antibody from hybridoma) VH: QVQLQQSGPELVKPGASVRISCKTSGFTFTNYYIHWVIQRPGQGLEWIGWISPENGNTKYNENFQDKATLTADISSSTAYMHLSSLTSEDSAVYFCARDGYSLYYFDYWGQGTTLTVSS VL: DIVMSQSPSSLTVSAGEKVTMSCKSSQSLLNSRTRKNYLAWYQQKPGQSPKLLIYWASIRVSGVPDRFTGSGSGTTFTLTISGVQAEDLAVYYCTQSHTLRTFGGGTKLEIK
Solution: 28
